Provenance of the data: patent US9018414B2

# Tested on: recombinant guanylate cyclase reporter cell line
# experimentalProtocol: Action at recombinant guanylate cyclase reporter cell line (CHO reporter cell)
# Assay type: cell-based
# reportedConditions: MEC = minimal effective concentration; read-out: sGC-activating activity in the CHO reporter cell in vitro, MEC
Overview of recorded minimal effective concentration for various compounds
Report as a plain number; the unit µM is understood.

These solved cases illustrate the format of a correct answer.
> print(dat)
                            structuresmiles  observedresult
1  C[C@H]([C@H](C(=O)Nc1cc(CCC(=O)O)ccc1Cl)c1ccc(C(C)(C)C)cc1)C(F)(F)F          0.0003
2  C[C@H]([C@H](C(=O)Nc1cc(C2(CC(=O)O)CC2)ccc1F)c1ccc(Cl)cc1)C(F)(F)F            0.01
3  C[C@H]([C@H](C(=O)Nc1cc(C2(CC(=O)O)CC2)ccc1Cl)c1ccc(Cl)cc1)C(F)(F)F           0.001

Kindly review the next compound as well.
QUERY: Fill in: minimal effective concentration on recombinant guanylate cyclase reporter cell line, entry CC[C@@H](Cc1ccc(Cl)c(NC(=O)[C@H](c2ccc(Cl)cc2)[C@@H](C)C(F)(F)F)c1)C(=O)O
RESULT: 0.0003
